molecular target: Recombinant human His-tagged Kat6a protein (amino acids 194-810) (Homo sapiens (Human), UniProt Q92794); test: Kat6a activity assay (TR-FRET, acetylation of biotinylated Histone-H4-derived peptide); conditions: 60 mins at 22° C., read-out: KAT6A-DPF/HAT domain IC50 [mol/l] (arithmetic mean)
Sequence (Q92794 194-810): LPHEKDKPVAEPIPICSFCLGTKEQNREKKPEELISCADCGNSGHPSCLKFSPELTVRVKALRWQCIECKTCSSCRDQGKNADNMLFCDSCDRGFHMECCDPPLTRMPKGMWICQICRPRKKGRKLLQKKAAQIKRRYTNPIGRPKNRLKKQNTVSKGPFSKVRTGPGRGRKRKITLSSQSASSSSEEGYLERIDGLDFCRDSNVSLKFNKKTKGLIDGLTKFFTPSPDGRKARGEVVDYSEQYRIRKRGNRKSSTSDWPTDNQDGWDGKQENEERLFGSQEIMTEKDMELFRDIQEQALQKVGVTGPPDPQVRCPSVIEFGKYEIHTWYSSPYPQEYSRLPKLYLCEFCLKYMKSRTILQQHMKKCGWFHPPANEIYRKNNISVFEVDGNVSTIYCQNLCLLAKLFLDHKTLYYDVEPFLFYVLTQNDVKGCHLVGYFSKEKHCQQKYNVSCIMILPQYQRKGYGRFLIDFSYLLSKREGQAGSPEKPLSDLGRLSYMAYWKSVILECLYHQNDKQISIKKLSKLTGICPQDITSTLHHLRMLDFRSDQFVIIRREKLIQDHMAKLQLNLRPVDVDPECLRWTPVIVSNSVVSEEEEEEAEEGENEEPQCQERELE
QUANTITY_KIND: IC50 (µM)

Worked set:
[
  {
    "MOLECULE": "CN(C)c1ccc2cc(C(=O)NS(=O)(=O)c3c(F)cccc3C3CCC3)oc2c1",
    "RESULT": 0.684
  },
  {
    "MOLECULE": "CCOc1ccccc1S(=O)(=O)NC(=O)c1cc2ccc(N(C)c3ccccc3)cc2o1",
    "RESULT": 1.83
  },
  {
    "MOLECULE": "CC(C)c1ccc(OCC2CC2)c(S(=O)(=O)NC(=O)c2cc3ccc(N(C)C)cc3o2)c1",
    "RESULT": 0.00791
  },
  {
    "MOLECULE": "Cc1ccc2cccc(S(=O)(=O)NC(=O)c3cc4cc(Cl)c(N(C)C)cc4o3)c2n1",
    "RESULT": 6.64
  },
  {
    "MOLECULE": "CN(C)c1ccc2cc(C(=O)NS(=O)(=O)c3cccc4ccc(Cl)nc34)oc2c1",
    "RESULT": 0.0205
  }
]

A = Cc1ccc(S(=O)(=O)NC(=O)c2cc3ccc(N(C)C)cc3o2)c(-c2ccccc2)c1
B = COCCN(C)c1ccc2cc(C(=O)NS(=O)(=O)c3ccc(C)cc3-c3ccccc3)oc2c1
Task item: Response body: label of entry with the larger IC50; valid values A , B . Refer to your chosen entry by its label in the reply.
Reply: B

I = CC(C)c1ccc(OCc2ccccc2)c(S(=O)(=O)NC(=O)c2cc3ccc(N(C)C)cc3o2)c1
II = CC(Oc1ccccc1S(=O)(=O)NC(=O)c1cc2ccc(N(C)C)cc2o1)C(F)(F)F (racemic)
Task item: Given I and given II , which shows the smaller recorded IC50? Refer to your chosen entry by its label in the reply.
Reply: I
